Biological target: DAT (Homo sapiens, UniProt Q01959)
Sequence (Q01959 whole entry): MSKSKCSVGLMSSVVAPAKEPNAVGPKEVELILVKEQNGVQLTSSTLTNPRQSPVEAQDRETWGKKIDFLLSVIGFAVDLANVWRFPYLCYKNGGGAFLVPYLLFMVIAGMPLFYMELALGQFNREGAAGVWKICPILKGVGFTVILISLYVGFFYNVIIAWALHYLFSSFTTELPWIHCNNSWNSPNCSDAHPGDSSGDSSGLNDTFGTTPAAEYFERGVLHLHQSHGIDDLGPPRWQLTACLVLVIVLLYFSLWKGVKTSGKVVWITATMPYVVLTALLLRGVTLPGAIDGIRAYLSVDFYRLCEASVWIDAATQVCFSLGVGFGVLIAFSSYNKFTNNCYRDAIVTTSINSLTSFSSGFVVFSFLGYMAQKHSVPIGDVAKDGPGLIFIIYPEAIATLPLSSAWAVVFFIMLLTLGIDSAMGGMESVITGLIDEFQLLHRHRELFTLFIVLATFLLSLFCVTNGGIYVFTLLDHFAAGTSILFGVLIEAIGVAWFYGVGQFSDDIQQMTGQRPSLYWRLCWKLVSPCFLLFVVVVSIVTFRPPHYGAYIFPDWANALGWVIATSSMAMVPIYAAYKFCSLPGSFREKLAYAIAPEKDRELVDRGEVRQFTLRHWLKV
Assay: Stereoselective uptake into DAT-overexpressing HEK293 cells;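 note: intracellular accumulation measured by chiral HPLC-MS/MS in stably transfected HEK293 cells, normalized to total protein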
Details: DAT; ratio between enantiomers, given as for (R) or for 1 (first-eluting)
For each of the compounds below, state its Stereoselectivity Km.
Number plus unit, in that order.

(Q) What measured Stereoselectivity Km goes with CNC[C@@H](O)c1cccc(O)c1 [(S)-Phenylephrine] ?
(A) 1.06 fold

(Q) What Stereoselectivity Km value was documented for this compound, CNC[C@H](O)c1cccc(O)c1 [(R)-Phenylephrine] ?
(A) 1.06 fold

(Q) Given the compound NC[C@@H](O)c1ccc(O)cc1 [(S)-Octopamine] , what is its reported Stereoselectivity Km?
(A) 1.05 fold

***
(Q) I have this compound here, NC[C@H](O)c1ccc(O)cc1 [(R)-Octopamine] , and I need its recorded Stereoselectivity Km.
(A) 1.05 fold

----------
Biological target: UniProt O15244
Experiment: Stereoselective uptake into OCT2 (wild-type)-overexpressing HEK293 cells
Conditions: human, Stereoselectivity ClInt, OCT2; ratio between enantiomers, given as for (R) or for 1
ATTRIBUTE_MEASURED: selectivity ratio at 2 min
Numbers only.

Dear reader, for each entry below, please note its selectivity ratio at 2 min.
1. CNCC(O)c1ccccc1 (stereo not shown)
2. NCC(O)c1cccc(O)c1 (single isomer, unassigned)
3. COc1cc(C(O)CN)ccc1O (single isomer, unassigned)

(A)
[1.89, 1.4, 1.56]

(Q) Value lookup for selectivity ratio at 2 min; key = CNCC(O)c1ccc(O)c(OC)c1 (single isomer, unassigned)
(A) 2.66

----------
Molecular target: SERT (Homo sapiens, UniProt P31645)
Sequence (P31645 whole entry): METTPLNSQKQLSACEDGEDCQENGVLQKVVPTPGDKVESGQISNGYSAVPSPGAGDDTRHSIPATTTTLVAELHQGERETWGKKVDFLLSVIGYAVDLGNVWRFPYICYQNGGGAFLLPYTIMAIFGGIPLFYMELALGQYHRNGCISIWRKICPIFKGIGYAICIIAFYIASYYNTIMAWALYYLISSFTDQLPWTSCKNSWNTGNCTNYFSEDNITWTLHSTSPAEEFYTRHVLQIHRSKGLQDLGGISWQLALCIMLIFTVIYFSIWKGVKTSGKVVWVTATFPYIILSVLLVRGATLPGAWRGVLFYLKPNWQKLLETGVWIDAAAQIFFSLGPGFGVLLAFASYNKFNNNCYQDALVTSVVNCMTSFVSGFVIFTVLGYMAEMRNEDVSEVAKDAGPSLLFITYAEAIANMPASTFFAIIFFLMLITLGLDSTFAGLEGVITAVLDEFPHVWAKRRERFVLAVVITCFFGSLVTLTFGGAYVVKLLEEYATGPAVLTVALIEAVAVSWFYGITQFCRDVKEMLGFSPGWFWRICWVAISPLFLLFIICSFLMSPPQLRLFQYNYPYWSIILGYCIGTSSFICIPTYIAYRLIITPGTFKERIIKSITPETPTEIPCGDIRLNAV
Test: Stereoselective uptake into SERT-overexpressing HEK293 cells;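 note: uptake into HEK293 cells stably expressing human SERT over 2 min, enantiomers measured in cell lysate by chiral HPLC-MS/MS, normalized to total protein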
Conditions: read-out: Km ± SEM; HEK293 cells overexpressing human SERT; racemic substrate, two minutes; net uptake minus empty vector control
ATTRIBUTE_MEASURED: Km (µM)
Give bare numbers, in µM.

(Q) Give its Km value. Item: NC[C@H](O)c1ccc(O)c(O)c1 [(R)-Norepinephrine]
(A) 176

(Q) Given the entry NC[C@@H](O)c1ccc(O)c(O)c1 [(S)-Norepinephrine] , report its measured Km.
(A) 175

(Q) What value of measured Km is listed for C[C@@H]1NCCc2cc(O)c(O)cc21 [Salsolinol-1, Salsolinol] ?
(A) 129

Can you give me Km for all of these, one by one?
1. CNC[C@H](O)c1cccc(O)c1 [(R)-Phenylephrine]
2. CNC[C@@H](O)c1cccc(O)c1 [(S)-Phenylephrine]
3. C[C@@H]1NCCc2cc(O)c(O)cc21 [Salsolinol-2, Salsolinol]

(A)
328
173
239

----------
Target: OCT2 (Homo sapiens, UniProt O15244)
Sequence (O15244 whole entry S270A): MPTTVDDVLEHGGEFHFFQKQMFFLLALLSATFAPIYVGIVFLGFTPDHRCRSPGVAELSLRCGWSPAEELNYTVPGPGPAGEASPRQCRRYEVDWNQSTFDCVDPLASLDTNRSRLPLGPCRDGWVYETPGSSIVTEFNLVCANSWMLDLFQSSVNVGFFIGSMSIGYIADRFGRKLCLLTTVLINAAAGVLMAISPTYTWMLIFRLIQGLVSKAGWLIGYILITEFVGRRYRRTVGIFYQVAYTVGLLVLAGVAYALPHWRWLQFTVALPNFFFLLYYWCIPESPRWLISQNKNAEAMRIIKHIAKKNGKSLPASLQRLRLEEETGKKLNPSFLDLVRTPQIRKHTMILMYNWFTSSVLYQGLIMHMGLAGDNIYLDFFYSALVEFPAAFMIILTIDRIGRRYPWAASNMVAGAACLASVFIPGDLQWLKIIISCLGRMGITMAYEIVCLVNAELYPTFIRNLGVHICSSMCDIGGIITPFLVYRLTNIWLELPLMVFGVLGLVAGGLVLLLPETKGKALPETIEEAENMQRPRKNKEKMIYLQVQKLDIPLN
Assay: Stereoselective uptake into OCT2 (wild-type)-overexpressing HEK293 cells
Conditions: read-out: Km ± SEM; HEK293 cells overexpressing human OCT2; racemic substrate, two minutes; net uptake minus empty vector control
Exercise: for every item that follows, state its recorded Km.
Answers are plain numbers, in µM.

(Q) Please report the recorded Km for C[C@@H]1NCCc2cc(O)c(O)cc21 [Salsolinol-1, Salsolinol] .
(A) 222

(Q) Report Km for NC[C@H](O)c1ccc(O)c(O)c1 [(R)-Norepinephrine] please.
(A) 1730

(Q) Query (compound): CNC[C@@H](O)c1ccc(O)c(O)c1 [(S)-Epinephrine] ; field requested: Km
(A) 585

(Q) Record request: Km value, item C[C@@H]1NCCc2cc(O)c(O)cc21 [Salsolinol-2, Salsolinol]
(A) 213

Proceeding to the next compound to report its Km.
(Q) For the compound shown here, NC[C@@H](O)c1ccc(O)c(O)c1 [(S)-Norepinephrine] , give the reported Km.
(A) 1310
